Target: recombinant human PAD4 (human, UniProt Q9UM07 1-663)
Sequence (Q9UM07 whole entry): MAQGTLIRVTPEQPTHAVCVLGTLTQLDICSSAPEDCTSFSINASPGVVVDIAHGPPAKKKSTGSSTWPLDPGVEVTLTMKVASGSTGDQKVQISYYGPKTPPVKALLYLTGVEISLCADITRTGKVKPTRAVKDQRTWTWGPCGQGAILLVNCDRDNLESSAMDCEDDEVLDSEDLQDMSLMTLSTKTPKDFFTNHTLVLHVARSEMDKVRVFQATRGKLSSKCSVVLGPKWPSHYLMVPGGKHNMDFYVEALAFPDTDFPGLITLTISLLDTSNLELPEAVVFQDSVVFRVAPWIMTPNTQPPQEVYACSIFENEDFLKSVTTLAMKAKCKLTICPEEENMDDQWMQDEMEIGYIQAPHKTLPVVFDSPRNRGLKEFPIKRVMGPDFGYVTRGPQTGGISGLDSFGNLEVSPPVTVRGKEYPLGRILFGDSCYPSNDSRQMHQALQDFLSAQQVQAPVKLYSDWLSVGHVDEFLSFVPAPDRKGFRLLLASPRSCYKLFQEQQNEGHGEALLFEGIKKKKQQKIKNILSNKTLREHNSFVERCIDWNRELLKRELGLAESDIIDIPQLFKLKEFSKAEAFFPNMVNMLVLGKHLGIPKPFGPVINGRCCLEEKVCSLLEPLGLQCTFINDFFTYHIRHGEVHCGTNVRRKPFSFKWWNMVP
Test: cell-based or functional assay
Numbered stars: 1 amine (or outer) side, 2 acyl side, 3 side chain; on linkers, the order of the positions; unused ones are H or OH. Square brackets hold non-standard residues; d marks the D form. Ends that are not written are not given here. * marks the point of attachment. O(CA) = ornithine chloroamidine, N=C(CCl)NCCC[C@H](N[*:1])C(=O)[*:2]; Orn(fluoroacetimidoyl) = N=C(CF)NCCC[C@H](N)C(=O)O; Moc = COC(=O)*
Experimental Endpoint: IC50 values (µM), colorimetric assay
Please reply with the bare figure in µM and do not write the unit itself.

Examples from the recorded data:
Moc-TD[Orn(fluoroacetimidoyl)]GS-OMe (SMILES COC(=O)N[C@H](C(=O)N[C@@H](CC(=O)O)C(=O)N[C@@H](CCCNC(=N)CF)C(=O)NCC(=O)N[C@@H](CO)C(=O)OC)[C@@H](C)O) [CXP5-101]	10
Ac-YD[O(CA)]GS [CXP5.2-081]	10
Ac-GD[O(CA)]GS [CXP5.2-078]	18

Kindly review the next binder as well.
Ask | Which value of IC50 values (µM), colorimetric assay has been reported for Ac-KFD[Orn(fluoroacetimidoyl)]DFI-NH2 (SMILES CC[C@H](C)[C@H](NC(=O)[C@H](Cc1ccccc1)NC(=O)[C@H](CC(=O)O)NC(=O)[C@H](CCCNC(=N)CF)NC(=O)[C@H](CC(=O)O)NC(=O)[C@H](Cc1ccccc1)NC(=O)[C@H](CCCCN)NC(C)=O)C(N)=O) [0743-58FA] in the records?
Reply | 6
